solubility kinetic reference
# Condition Notes: buffer; pH 7.4; 200.0 µM
A number alone suffices; assume µg/mL.

Illustrative cases are given below, each with its answer.
compound="O=C1CC(C(=O)Nc2cccc(F)c2)n2c(nc3ccccc32)N1 (stereo unspecified)" parameter="solubility kinetic" measure_unit=µg/mL observed_result=0.9
compound=Cn1c(NCCO)nc2c1c(=O)n(Cc1ccc(F)cc1)c(=O)n2C parameter="solubility kinetic" measure_unit=µg/mL observed_result=50.6
compound=O=C(/C=C/c1cccnc1)c1ccc(F)c(F)c1 parameter="solubility kinetic" measure_unit=µg/mL observed_result=27.8

input: Output measured solubility kinetic for this item: CC(C)c1cccc(C(C)C)c1OCCCCCN1CCOCC1
output: 33.4

----------
# Condition Notes: buffer; pH 7.4; 200.0 µM
Cut-off 10 µg/mL on solubility kinetic, inclusive. At or above means Condition met; below means Condition not met.

Answered examples (6):
compound=O=C(COC(=O)c1cc(S(=O)(=O)N2CCOCC2)ccc1F)NC1CC1 label="Condition met"
compound=CCn1cc(CCC(=O)NCCc2ccccc2)c2ccccc21 label="Condition met"
compound=FC(F)(F)c1ccccc1-n1ccnc1 label="Condition met"
compound=O=C(Nc1nccs1)C(Cl)(Cl)Cl label="Condition met"
compound=Cc1cc(C)c(C)c(S(=O)(=O)N2CCSCC2)c1C label="Condition not met"
compound="CCC(CO)NCC(O)COCc1ccc2c(c1)OCO2 (stereo not drawn)" label="Condition met"

input: Please indicate if the recorded solubility kinetic for O=C(NC(=S)NC1CCCCC1)c1ccc(F)cc1 meets or exceeds 10 µg/mL.
output: Condition not met

input: Please indicate if the recorded solubility kinetic for Cc1cccc(OCC(=O)NCCCNC(=O)c2cccnc2)c1 meets or exceeds 10 µg/mL.
output: Condition met

input: Please indicate if the recorded solubility kinetic for O=C(NCc1ccccc1Cl)C1CCCO1 (stereo not drawn) meets or exceeds 10 µg/mL.
output: Condition met

input: Please indicate if the recorded solubility kinetic for O=C1C2CCCN2C(=S)N1C1CCCCC1 (stereo not drawn) meets or exceeds 10 µg/mL.
output: Condition met

input: Please indicate if the recorded solubility kinetic for O=C(NCC(=O)N1CCCCCC1)c1ccc(Cl)cc1 meets or exceeds 10 µg/mL.
output: Condition met

input: Please indicate if the recorded solubility kinetic for COc1cc(C(=O)Nc2nc3ccccc3[nH]2)ccc1OC(F)F meets or exceeds 10 µg/mL.
output: Condition not met

input: Please indicate if the recorded solubility kinetic for CC1(c2ccc(OC(F)F)cc2)NC(=O)N(CC(=O)NC2CCCC2)C1=O (stereo not drawn) meets or exceeds 10 µg/mL.
output: Condition met

input: Please indicate if the recorded solubility kinetic for C[C@H](NC(=O)c1ccco1)C(=O)OCC(=O)N1CC(=O)Nc2ccccc21 meets or exceeds 10 µg/mL.
output: Condition met

----------
solubility kinetic reference
# Condition Notes: buffer; pH 7.4; 200.0 µM
A number alone suffices; assume µg/mL.

Illustrative cases are given below, each with its answer.
chemical_string=COc1ccc(CNC(=O)CSc2nc3ccccc3n2C(C)=O)cc1 measure_unit=µg/mL observed_result=21.2
chemical_string=COc1ccc2c(c1)c(-c1csc(N)n1)c(C)n2C measure_unit=µg/mL observed_result=27.7

input: Output measured solubility kinetic for this item: COCCCNC(=O)c1ccc(CSCc2ccc(C)cc2)o1
output: 49.8

----------
# Condition Notes: buffer; pH 7.4; 200.0 µM
Cut-off 20 µg/mL on solubility kinetic, inclusive. At or above means t; below means f.

Answered examples (3):
compound=CCc1ccc(C(=O)NNC(=O)[C@H](C)NC(=O)c2ccco2)cc1 label=t
compound="CC1CN(C(=S)NC2CCCC2)CC(C)O1 (stereo not given)" label=t
compound=CC(C)NC(=O)c1ccc2c(c1)N(CC(=O)N1CCCCC1)C(=O)C(C)(C)O2 label=t

input: Please indicate if the recorded solubility kinetic for Cc1ccc(NC(=O)CSc2ccc3c(c2)OCCO3)nc1 meets or exceeds 20 µg/mL.
output: t

input: Please indicate if the recorded solubility kinetic for O=C(COc1ccc(F)cc1)N1CCCc2ccccc21 meets or exceeds 20 µg/mL.
output: t

input: Please indicate if the recorded solubility kinetic for Cc1ccc(C(=O)CN2CCN(c3ccccn3)CC2)c(C)c1 meets or exceeds 20 µg/mL.
output: t

input: Please indicate if the recorded solubility kinetic for O=C(Oc1ccc(F)cc1)N1CCOCC1 meets or exceeds 20 µg/mL.
output: t

input: Please indicate if the recorded solubility kinetic for Cc1cc(SCC(=O)N(C)C2CCCCC2)nc2ccccc12 meets or exceeds 20 µg/mL.
output: f

input: Please indicate if the recorded solubility kinetic for CC(=O)c1cccc(OCC(O)CNCCOc2ccc(C)cc2)c1 (stereo not given) meets or exceeds 20 µg/mL.
output: t
